- System: SF-539
- Protocol Notes: NCI tumour cell line growth inhibition, 48 h
The source made the active and inactive calls. Rule as the data show it: active = GI50 up to about 1.1 µM and inactive = higher. Non-standard residues stand in square brackets, D forms with d. Residues, ends and D or L forms follow the SMILES beside them. *: point of attachment. NMeF = CN[CH](Cc1ccccc1)C(=O)O; NMeV = CN[CH](C(=O)O)C(C)C; Boc = CC(C)(C)OC(=O)*
One label from this list, please: YES = active, NO = inactive

# count of solved cases: 2
# Compound, Label
records = [
    ("CC12CCC3=C(CSC4=C3CSc3ccccc34)C1=CCCC2=O (centres undefined)", "NO"),
    ("COc1cc(/C=C2\\NC(=O)N(/C=C3\\C(=O)Oc4ccccc4C3=O)C2=O)ccc1O", "NO"),
]

For CN1C(=O)CC(CC(=O)C2CCCCC2=O)CC1=O (centres undefined) , which call appears in the assay record?
NO

Moving on to `O=c1c2cc(O)ccc2n2nnc3ccc(NCCNCCO)c1c32`
NO

Let us now turn to `CC1=NN(c2nc(N)nc(/C(C#N)=C/c3ccncc3)n2)C(C)(C)C1`
NO

Input `COc1cccc(/C=C\c2ccnc3ccccc23)c1`
NO

Let us now turn to CC(C)C(NC(=O)OC(C)(C)C)C(=O)N(C)C(Cc1ccccc1)C(=O)N(C)C(C(=O)N(C)C(C(=O)O)C(C)C)C(C)C (centres undefined) (Boc-V[NMeF][NMeV][NMeV]-OH; configuration not given here)
NO

Likewise for `C=C1C(=O)O[C@@H]2C[C@@H](C)[C@@H]3C=CC(=O)[C@@]3(C)[C@@H](OC(=O)CC(=O)O[C@H]3[C@@H]4C(=C)C(=O)O[C@@H]4C[C@@H](C)[C@@H]4C=CC(=O)[C@]43C)[C@H]12` ?
YES
